These data points were gathered from paper PMC3409115.

- test.system: T. cruzi CYP51 (Trypanosoma cruzi)
- Construct: had the first 21 residues upstream of K22 replaced with the fragment MAKKKKK; His6 (C); made in house
- Sequence (Q7Z1V1 15-481, looked up, natural form): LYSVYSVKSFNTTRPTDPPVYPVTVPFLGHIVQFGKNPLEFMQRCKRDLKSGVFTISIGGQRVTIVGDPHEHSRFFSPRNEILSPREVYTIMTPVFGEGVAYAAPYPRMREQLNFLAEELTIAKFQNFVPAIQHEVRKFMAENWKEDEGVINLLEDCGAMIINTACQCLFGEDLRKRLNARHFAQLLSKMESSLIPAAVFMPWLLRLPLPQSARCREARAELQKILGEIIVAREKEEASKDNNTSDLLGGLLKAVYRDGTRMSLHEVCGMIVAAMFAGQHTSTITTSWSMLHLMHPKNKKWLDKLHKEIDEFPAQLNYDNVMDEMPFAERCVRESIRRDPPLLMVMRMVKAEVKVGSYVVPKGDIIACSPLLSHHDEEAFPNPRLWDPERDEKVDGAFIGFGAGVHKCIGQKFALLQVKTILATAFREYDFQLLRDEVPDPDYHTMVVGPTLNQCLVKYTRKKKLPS
- measurement.notes: HTS spectral-mode binding screen, type II difference spectra scored 0-5
- test.conditions: spectral mode, four serial dilutions 2 µM to 12.5 µM, 2 µM CYP51
readout.label: HTS binding score
Lab note: write the figure by itself, no unit.

Ask: What measured HTS binding score goes with CC1(C)CC(=O)C2=C(C1)c1c(ccc3ccccc13)NC2c1cccnc1 (stereo not shown) [Compound 19] ?
Result: 5

Ask: For the compound O=C(Cc1cccc(O)c1)Nc1cc(-c2ccncc2)cnc1O [Compound 80] , what HTS binding score is on record?
Result: 4

Ask: Please give the measured HTS binding score for this compound: O=S(=O)(Nc1ccc(Cc2ccncc2)cc1)c1ccc(Br)cc1 [Compound 142]
Result: 4

Ask: State the recorded HTS binding score for this entry: N=C(NOC(=O)/C=C/c1ccccc1Cl)c1ccncc1 [Compound 60]
Result: 4

Ask: What measured HTS binding score goes with O=C(/C(=C/c1ccc(F)cc1)n1cncn1)c1ccc(Cl)cc1Cl [Compound 116] ?
Result: 4

Ask: Would you mind telling me what HTS binding score value was observed for Cc1cc(C=C2C(=O)c3ccccc3C2=O)c(C)n1-c1ccncc1 [Compound 85] ?
Result: 4

Ask: Item COc1ccc2nc3oc(C(=O)NCc4cccnc4)cc3cc2c1 [Compound 90] has what recorded HTS binding score?
Result: 5

Ask: Need HTS binding score of O=C(CCc1nc(-c2ccc(Cl)cc2)no1)Nc1cccnc1 [Compound 86] , thanks.
Result: 4

Ask: Which HTS binding score reading was recorded for the compound O=P(Nc1cccnc1)(Oc1ccccc1Cl)Oc1ccccc1Cl [Compound 41] ?
Result: 5

Ask: Fill blank: measured HTS binding score of the compound O=C(/C=C/c1cccs1)c1ccncc1 [Compound 56] is ____.
Result: 3
